ASSAYED_SYSTEM: human H1 receptor (Homo sapiens)
Construct: expressed in transfected cells
Sequence (P35367 whole entry): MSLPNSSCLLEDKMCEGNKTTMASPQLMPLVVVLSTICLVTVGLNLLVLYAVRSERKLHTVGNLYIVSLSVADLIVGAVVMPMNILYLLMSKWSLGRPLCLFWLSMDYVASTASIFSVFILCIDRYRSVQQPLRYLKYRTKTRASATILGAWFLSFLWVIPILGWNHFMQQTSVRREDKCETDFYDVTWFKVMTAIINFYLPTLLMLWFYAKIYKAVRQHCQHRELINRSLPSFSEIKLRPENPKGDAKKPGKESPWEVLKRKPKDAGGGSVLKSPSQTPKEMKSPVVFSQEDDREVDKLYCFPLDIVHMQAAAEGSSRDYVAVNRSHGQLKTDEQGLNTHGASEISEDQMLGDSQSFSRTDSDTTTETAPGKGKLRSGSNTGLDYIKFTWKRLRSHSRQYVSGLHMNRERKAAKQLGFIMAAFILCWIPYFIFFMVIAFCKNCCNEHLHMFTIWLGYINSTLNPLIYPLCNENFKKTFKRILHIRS
PROTOCOL: Histamine H1 functional antagonist assay: determination of functional pKi values (FLIPR)
Type: cell-based
CONDITION_INFO: CHO cells expressing human H1 receptor, histamine at EC80, read-out: average pKi (pKb) at H1 (converted)
Consider the following compounds and their measured Ki readings.

Please review the following examples before continuing.
| SMILES_STRING | OBSERVED_PROPERTY | TEST_VALUE |
| --- | --- | --- |
| CCCCc1cc(OC2CCN(CCCCNC(C)=O)CC2)c2ncccc2c1 | Ki | < 10 nM |
| CCCCCCc1cc(OC2CCN(C[C@H]3CC[C@H](C(=O)Nc4ccc(C)cc4)CC3)CC2)c2ncccc2c1 | Ki | < 100 nM |
| CCCCc1cc(OC2CCN(C[C@H]3CC[C@H](C(=O)Nc4ccc(C)cc4)CC3)CC2)c2ncccc2c1 | Ki | < 100 nM |

Exercise: Tell me measured Ki for CCCCc1cc(OC2CCN(CCCC(=O)NCCC)CC2)c2ncccc2c1 please.
Solution: < 10 nM

Exercise: Tell me measured Ki for CCCCCCc1cc(OC2CCN(C[C@H]3CC[C@H](C(=O)N4CCCC4)CC3)CC2)c2ncccc2c1 please.
Solution: < 100 nM

Exercise: Tell me measured Ki for CCCCCCc1cc(OC2CCN(C[C@H]3CC[C@H](C(=O)N(CC)CC)CC3)CC2)c2ncccc2c1 please.
Solution: < 100 nM

Exercise: Tell me measured Ki for CCCCc1cc(OC2CCN(CCCC(=O)NCCOC)CC2)c2ncccc2c1 please.
Solution: < 10 nM

Exercise: Tell me measured Ki for CCCCc1cc(O[C@H]2CCN(CCC(=O)N3CCCCC3)C2)c2ncccc2c1 please.
Solution: ~1000 nM

Exercise: Tell me measured Ki for CCCCc1cc(OC2CCN(CCCCC(=O)NC(C)C)CC2)c2ncccc2c1 please.
Solution: < 10 nM

Exercise: Tell me measured Ki for CCCCc1cc(OC2CCN(CCNC(=O)CCC)CC2)c2ncccc2c1 please.
Solution: < 10 nM

Exercise: Tell me measured Ki for CCCCc1cc(OC2CCN(CCCC(=O)NCCCOC)CC2)c2ncccc2c1 please.
Solution: < 10 nM

Exercise: Tell me measured Ki for CCCCc1cc(OC2CCN(C[C@H]3CC[C@H](C(=O)NCCC(C)C)CC3)CC2)c2ncccc2c1 please.
Solution: < 10 nM

Exercise: Tell me measured Ki for CCCCc1cc(OC2CCN(CCC3CCN(C(C)=O)CC3)CC2)c2ncccc2c1 please.
Solution: < 100 nM

Exercise: Tell me measured Ki for CCCCc1cc(OC2CCN(CCCCC(=O)NCCOC)CC2)c2ncccc2c1 please.
Solution: < 100 nM

Exercise: Tell me measured Ki for CCCCc1cc(OC2CCN(CCNC(=O)C3CCCCC3)CC2)c2ncccc2c1 please.
Solution: < 10 nM

Exercise: Tell me measured Ki for CCCCc1cc(OC2CCN(CCCCNC(=O)CCCOC)CC2)c2ncccc2c1 please.
Solution: < 10 nM

Exercise: Tell me measured Ki for CCCCc1cc(OC2CCN(CCC(=O)NCC)CC2)c2ncccc2c1 please.
Solution: < 100 nM
